This listing pairs molecules with measured log10 EC50.
- Assay System: GST tagged LXRbeta LBD (ligand binding domain) (Homo sapiens)
- Sequence (P55055 222-460 limits assumed): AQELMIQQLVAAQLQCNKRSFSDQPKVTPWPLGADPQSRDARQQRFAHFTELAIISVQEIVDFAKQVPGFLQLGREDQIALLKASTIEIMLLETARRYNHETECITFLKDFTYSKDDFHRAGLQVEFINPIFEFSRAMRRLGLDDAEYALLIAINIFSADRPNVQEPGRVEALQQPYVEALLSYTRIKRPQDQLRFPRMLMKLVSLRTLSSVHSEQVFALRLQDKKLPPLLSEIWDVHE
- Test Summary: LanthaScreen TR-FRET Liver X Receptor Coactivator Assay, LXR beta-LBD (co-activator recruitment; IP and % Emax relative to T0901317)
- Experimental Parameters: Inflection Point of co-activator recruitment, LXR beta-LBD, TR-FRET
Measurement Type: log10 EC50 (log10 of the value in µM)

CCN(CC)C(=O)c1ccc(N2CCC(CCCN(C)C(=O)[C@](O)(c3cccc(OC)c3)C(F)(F)F)CC2)cc1Cl : -1.14
CN(C)C(=O)c1ccc(N2CCC(CCCN(C)C(=O)[C@](O)(c3cccc(C4CC4)c3)C(F)(F)F)CC2)nc1Cl : -1.77
COc1cccc([C@@](O)(C(=O)N(C)CCC2CC23CCN(c2ccc(C(=O)NC(C)C)c(Cl)n2)CC3)C(F)(F)F)c1 (stereo in doubt) : -1.12
CN(C)C(=O)c1ccc(N2CCC(CCCN(C)C(=O)[C@@](O)(c3cccc(OC4CC4)c3)C(F)(F)F)CC2)nc1Cl : -0.36
COc1cccc([C@@](O)(C(=O)N(C)CCCC2CCN(c3ccc(C(=O)N(C)C)c(Cl)n3)CC2)C(F)F)c1 : -0.24
CN(C)C(=O)c1ccc(N2CCC([C@H]3C[C@H]3CN(C)C(=O)[C@](O)(c3cc(Cl)cc(Cl)c3)C(F)(F)F)CC2)nc1Cl : -2.05
CN(C)C(=O)c1ccc(N2CCC([C@H]3C[C@H]3CNC(=O)[C@](O)(c3ccccc3)C(F)(F)F)CC2)nc1Cl : -0.41
COc1cccc([C@](O)(C(=O)N(C)CCCC2CCN(c3ccc(C(=O)N(C)C)c(Cl)n3)CC2)C(F)(F)F)c1 : -0.22
COc1cccc([C@@](O)(C(=O)N(C)CCC2CC3(CCN(c4ccc(C(=O)NC5CC5)c(Cl)n4)CC3)C2)C(F)(F)F)c1 : -0.18
CN(C)C(=O)c1ccc(N2CCC(CCCN(C)C(=O)[C@]3(C(F)(F)F)CCCO3)CC2)nc1Cl : -0.97
COc1cccc([C@@](O)(C(=O)N(C)C[C@@H]2C[C@@H]2C2CCN(c3ccc(C(=O)N(C)C)c(Cl)n3)CC2)C(F)(F)F)c1 : -1.77
CN(C)C(=O)c1ccc(N2CCC(CCCN(C)C(=O)[C@]3(c4ccccc4F)CCCO3)CC2)nc1Cl : -1.19
COc1cccc([C@@](O)(C(=O)N[C@@H](C)CCC2CCN(c3ccc(C(=O)N(C)C)c(Cl)n3)CC2)C(F)(F)F)c1 : -0.42
CC(C)C(O)(C(=O)NCCCC1CCN(c2ccc(C(=O)N(C)C)c(Cl)n2)CC1)C(F)(F)F (centres unmarked) : -0.20
CNC(=O)c1ccc(N2CCC(CCCN(C)C(=O)[C@](O)(c3cccc(OC)c3)C(F)(F)F)CC2)nc1Cl : -0.28
CC(C)N(C)C(=O)c1ccc(N2CCC(CCCN(C)C(=O)[C@](O)(c3ccccc3)C(F)(F)F)CC2)cc1Cl : -0.79
CN(C)C(=O)c1ccc(N2CCC(F)(CCCN(C)C(=O)[C@](O)(c3ccccc3)C(F)(F)F)CC2)nc1Cl : -0.58
